test system: MALME-3M melanoma; test: NCI-60 one-dose screen, 48 h (100 = growth as untreated, 0 = no growth, -100 = all killed); conditions: 10 µM unless noted
About 83,000 compounds went through this panel and 20% of them were active in at least one assay; those are over-represented in the sample as a whole.
MEASUREMENT_LABEL: growth (%)
Give the value, in units of %, as a plain number.

Field: example entries. Status: answers known.
1. O=C(Nc1ncc(Cc2ccccc2Cl)s1)c1ccc2c(c1)OCCO2
56.6
2. Cc1ccc(-c2nc(C#N)c(S(=O)(=O)n3nc(C)cc3N)o2)cc1
-63.3
3. COc1ccc(Nc2nccc(Nc3ccc4[nH]ncc4c3)n2)cc1
76.1

The value of growth measured for the compound O=C1c2c(c3c4cc(F)ccc4oc3c3[nH]c4ccccc4c23)C(=O)N1O turned out to be 28

The value of growth measured for the compound COc1ccc(-c2ccc(-c3ccc(C(=N)N)nc3)s2)cc1 turned out to be 87.7

The value of growth measured for the compound CCCCCCCCNc1ncnc2c1ncn2Cc1nnc2c3ccccc3c(Cl)nn12 turned out to be 69.9

###

test system: SF-295 CNS; experiment: NCI-60 one-dose screen, 48 h (100 = growth as untreated, 0 = no growth, -100 = all killed); conditions: 10 µM unless noted
About 83,000 compounds went through this panel and 20% of them were active in at least one assay; those are over-represented in the sample as a whole.
Measured growth, listed per entry.
Give the value, in units of %, as a plain number.

Field: example entries. Status: answers known.
1. C#Cc1cccc(Nc2nc(Cl)nc3cc(NC(=O)CCl)ccc23)c1
-86.9
2. CCOc1cc(\C=N/N=C(N)/C(N)=N\N=C/c2ccc(O)c(OCC)c2)ccc1O
106
3. COc1ccc(N2C(=O)/C(=C/C(Cl)=C/c3ccc([N+](=O)[O-])cc3)SC2=S)cc1
-32.1
4. CN1CCN(Cc2ccc(NC(=O)c3cncc(C#Cc4c(N)ncc5ccccc45)c3)cc2C(F)(F)F)CC1
-59.9
5. CNC1=C([N+](=O)[O-])C(c2ccc(OC)cc2)C(C#N)=C(c2ccc[nH]2)O1 (stereo not drawn)
101
6. O=c1c(/C=C/c2c(O)ccc3ccccc23)nnc2sc(-c3cccc([N+](=O)[O-])c3)nn12
43.8

The value of growth measured for the molecule CC(C)C(=O)Nc1ncc(C(=O)NCCN(Cc2ccccc2)C(=O)c2ccc(S(=O)(=O)Nc3ccccc3)cc2)s1 turned out to be 100

The value of growth measured for the molecule CC(=O)OCC(=O)O[C@@H]1C[C@]2(C(C)C)O[C@@]1(C)[C@@H]1CC[C@@H](C)[C@H]1[C@@H]2OC(=O)/C=C/c1ccccc1 turned out to be 88.8

###

Tested on: EKVX NSCLC
Experiment: NCI-60 one-dose screen, 48 h (100 = growth as untreated, 0 = no growth, -100 = all killed)
Settings: 10 µM unless noted
Experimental: Growth inhibition of the EKVX human Non-Small Cell Lung tumor cell line is measured as a screen for anti-cancer activity. Cells are grown in 96 well plates and exposed to the test compound for 48 hours. Compounds are tested at a single concentration, which is 10^-5 M for most compounds. The reported endpoint is percent growth (GI% or GIPRCNT), where numbers from 0 - 100% represent growth inhibition, and numbers from -100% - 0 represent cell death. […]
The panel holds about 83,000 compounds, 20% with a hit somewhere; the sample as a whole holds those more often. Calls of active or inactive are those of the source. Rule for the calls: active = growth percent below 10; inactive = the rest.
MEASUREMENT_LABEL: growth

Field: example entries. Status: answers known.
1. CCOC(=O)C1=C(C)N(C)C(=O)N(C)C1c1ccccc1 (stereo not drawn)
97.2% (inactive)
2. C=C(CNCCO)[C@@H]1CC[C@]2(CO)CC[C@]3(C)[C@H](CC[C@@H]4[C@@]5(C)CCC(NCCO)C(C)(C)[C@@H]5CC[C@]43C)[C@@H]12 (stereo partly drawn)
82.4% (inactive)
3. Cc1c(C(=O)C(SC(=S)N2CCOCC2)SC(=S)N2CCOCC2)nnn1-c1ccc([N+](=O)[O-])cc1
113% (inactive)
4. COc1cc(CNC(=O)CCCC/C=C/C(C)C)ccc1OCc1cn(-c2cccc([N+](=O)[O-])c2)nn1
95.1% (inactive)
5. COc1cccc(-c2nn(-c3ccccc3)cc2-c2ccnc(-c3cccnc3)c2)c1
93.3% (inactive)
6. CN(C)CCOc1ccc(/C(=C(/CCCCCCCCCC[P+](c2ccccc2)(c2ccccc2)c2ccccc2)c2ccccc2)c2ccccc2)cc1
-86.1% (active)

The value of growth measured for the molecule Oc1cccc2c1NCCC2 turned out to be 22.3% (inactive)

The value of growth measured for the molecule O=C1CCc2c(sc3[nH]c(=S)n(-c4cc(C(F)(F)F)cc(C(F)(F)F)c4)c(=O)c23)C1 turned out to be -8.72% (active)

The value of growth measured for the molecule Cc1cc2nc(C(Cl)Cl)nc(-c3ccccc3)n2n1 turned out to be 61% (inactive)

The value of growth measured for the molecule COc1ccc(/C=N/NC(=O)Cn2nnc3ccccc32)cc1 turned out to be 101% (inactive)

The value of growth measured for the molecule COc1ccc(NC(=O)c2ccc(Cl)cc2Cl)cc1 turned out to be 89.1% (inactive)

The value of growth measured for the molecule COc1cccc2cc(N(C)c3nc(C)nc4c3CCC4)ccc12 turned out to be 56.1% (inactive)

The value of growth measured for the molecule Cc1cccc(C)c1NC(=O)Nc1ccccc1 turned out to be 121% (inactive)

The value of growth measured for the molecule C=C(C)[C@@H]1CCC[C@]2(C(=O)OC)CC[C@]3(C)[C@@H](CC[C@@H]4[C@@]5(C)CCCNC(C)(C)[C@@H]5CC[C@]43C)[C@@H]12 turned out to be 88.2% (inactive)

The value of growth measured for the molecule COc1ccc(/C(C)=C(\c2ccc(Cl)cc2)c2ccc(OCCCN(C)C)cc2)cc1 turned out to be 88.6% (inactive)

The value of growth measured for the molecule Fc1ccc(/C=C/c2cc(/C=C/c3ccc(F)cc3)n(-c3cc(F)cc(F)c3)n2)cc1 turned out to be 92.3% (inactive)

The value of growth measured for the molecule COc1cc(OCc2cccc(-c3ccccc3)c2C)cc(OC)c1CN1CCCCC1C(=O)NCCOCCOCCN (stereo not drawn) turned out to be 85.5% (inactive)

The value of growth measured for the molecule COc1cc(CNC(=O)CCCC/C=C/C(C)C)ccc1OCc1cn(-c2ccc(C(F)(F)F)cc2)nn1 turned out to be 88.3% (inactive)

The value of growth measured for the molecule CC1=C([Se]CC(OC(=O)[C@@H](CO)NC(=O)OC(C)(C)C)C(=O)NCCCCCC(=O)OCc2ccccc2)C(=O)c2ccccc2C1=O (stereo partly drawn) turned out to be -75.5% (active)

The value of growth measured for the molecule N#Cc1c(-c2ccc(Cl)cc2)nc(NN=Cc2cccc(Cl)c2)nc1N1CCOCC1 turned out to be 77.7% (inactive)

The value of growth measured for the molecule C=CC(=O)Nc1ccc2ncnc(Nc3cccc(NS(=O)(=O)CCC)c3Cl)c2c1 turned out to be 51.8% (inactive)

The value of growth measured for the molecule Cc1ccc(-c2nnc(SCc3nc(N)nc(Nc4ccccc4F)n3)n2-c2ccccc2)cc1 turned out to be 94.2% (inactive)

The value of growth measured for the molecule CCCC[N+]1(C)CCN=C1Cc1ccccc1 (stereo not drawn) turned out to be 96.6% (inactive)

The value of growth measured for the molecule O=CN1N=C(c2cccc(Nc3ccncc3)c2)CC1c1ccc2c(c1)OCO2 (stereo not drawn) turned out to be 67.6% (inactive)

The value of growth measured for the molecule O=C(c1ccc(F)cc1)C1CCN(CCn2c(=O)[nH]c3ccccc3c2=O)CC1 turned out to be 89.3% (inactive)

The value of growth measured for the molecule O=[N+]([O-])c1ccc(N/N=C\c2cc(Cl)ccc2O)nc1 turned out to be 31% (inactive)

###

system: RXF 393 renal; experiment: NCI-60 one-dose screen, 48 h (100 = growth as untreated, 0 = no growth, -100 = all killed); details: 10 µM unless noted
Compounds without any hit were thinned out: in the full panel of roughly 83,000, 20% have a hit. Calls of active or inactive are those of the source. The calls were made as follows: active = growth percent below 10; inactive = the rest.
MEASUREMENT_LABEL: growth

Field: example entries. Status: answers known.
1) O=C(Nc1ncc(Cc2ccc(Cl)cc2)s1)C1=NCCCCN1
119% (inactive)
2) COc1cc(-c2c(-c3ccccc3)c[nH]c2C(=O)NCCCO)c(OC)c2c1OCO2
93.5% (inactive)
3) COc1cc2c(c(OC)c1OC)CCC(c1cccc(C(=O)Nc3ccccc3Br)c1)O2 (configuration not stated)
91.8% (inactive)
4) O=C(Nc1ncc(Cc2ccccc2)s1)c1ccc2c(c1)OCCO2
10.2% (inactive)
5) CCN(CC)c1ccc(/C=N/NC(=O)c2ccccc2Nc2ccnc(C(F)(F)F)c2)c(O)c1
51.4% (inactive)

The value of growth measured for the compound Cc1nc2ccccc2c(/C=C/c2ccc(Br)cc2)c1C(=O)/C=C/c1ccccc1 turned out to be -71.3% (active)

The value of growth measured for the compound COc1ccc(-c2cn(Cc3ccc4c(Br)cc(Br)c(O)c4n3)nn2)cc1 turned out to be 91.8% (inactive)

The value of growth measured for the compound COc1ccc(S(=O)(=O)NC2c3ccccc3CC2O)cc1OC (configuration not stated) turned out to be 117% (inactive)

The value of growth measured for the compound CN(CCNc1ccc(C(=N)N)cc1)c1ccc(C(=N)N)cc1 turned out to be 109% (inactive)

The value of growth measured for the compound Cc1cc(N2CCOCC2)nc(N(CCCNc2ccnc3cc(Cl)ccc23)Cc2ccc3c(c2)OCO3)n1 turned out to be -75.6% (active)

The value of growth measured for the compound CCNc1nc(-c2ccc(Cl)c(OC)c2)c(-c2ccnc(NCCNS(=O)(=O)c3ccc(Cl)cc3)n2)s1 turned out to be 18.9% (inactive)

The value of growth measured for the compound CNc1nc2ncc(-c3c(C)noc3C)cc2n1Cc1ccccc1 turned out to be 54.1% (inactive)

The value of growth measured for the compound CSc1nc(CC(C)C)c(C#N)c(=O)n1C turned out to be 58.7% (inactive)

The value of growth measured for the compound Cc1ccc(NC(=O)c2ccc(Nc3ncnc4c3cnn4-c3cccc(F)c3)cc2)cc1 turned out to be 92.5% (inactive)

Data provenance: PubChem BioAssay (NCI)
